experiment: Cytotoxicity in MT-2 cells (concentration to kill 50% of the cells); type: cell-based; conditions: human
measurementKind: CC50 (µM)

C[C@H](Cn1cnc2c(N)ncnc21)OCP(=O)(O)O [compound 2, reference compound] :: 250

====

test: physchem
measurementKind: logP

C[C@H](Cn1cnc2c(N)ncnc21)OCP(=O)(O)O [compound 2, reference compound] :: -2.5

====

test system: MT-2 cells; assay: Cytotoxicity in MT-2 cells (concentration to kill 50% of the cells); assay type: cell-based
# Lookup of reported CC50 keyed by entry
measurementKind: CC50 (µM)

CCOC(=O)OCOP(=O)(CO[C@H](C)Cn1cnc2c(N)ncnc21)OCOC(=O)OCC [5a] :: 40
CCC(CC)OC(=O)OCOP(=O)(CO[C@H](C)Cn1cnc2c(N)ncnc21)OCOC(=O)OC(CC)CC [5g] :: 40
C[C@H](Cn1cnc2c(N)ncnc21)OCP(=O)(OCOC(=O)OC(C)(C)C)OCOC(=O)OC(C)(C)C [5d] :: 10
CC(C)OC(=O)OCOP(=O)(CO[C@H](C)Cn1cnc2c(N)ncnc21)OCOC(=O)OC(C)C [5f] :: 50
CC(C)COC(=O)OCOP(=O)(CO[C@H](C)Cn1cnc2c(N)ncnc21)OCOC(=O)OCC(C)C [5c] :: 30
C[C@H](Cn1cnc2c(N)ncnc21)OCP(=O)(OCOC(=O)OCC(C)(C)C)OCOC(=O)OCC(C)(C)C [5e] :: 3

====

system: HIV-1(IIIB); assay: Antiviral activity against HIV-1(IIIB) in MT-2 cells (tissue culture); format: cell-based; settings: CC50/IC50, HIV-1, MT-2 cells
measurementKind: SI - Selectivity Index(CC50/IC50)

CC(C)COC(=O)OCOP(=O)(CO[C@H](C)Cn1cnc2c(N)ncnc21)OCOC(=O)OCC(C)C :: 30000
CCOC(=O)OCOP(=O)(CO[C@H](C)Cn1cnc2c(N)ncnc21)OCOC(=O)OCC :: 20000
CCC(CC)OC(=O)OCOP(=O)(CO[C@H](C)Cn1cnc2c(N)ncnc21)OCOC(=O)OC(CC)CC :: 40000
C[C@H](Cn1cnc2c(N)ncnc21)OCP(=O)(OCOC(=O)OCC(C)(C)C)OCOC(=O)OCC(C)(C)C :: 3000
C[C@H](Cn1cnc2c(N)ncnc21)OCP(=O)(O)O [compound 2, reference compound] :: 500
CC(C)OC(=O)OCOP(=O)(CO[C@H](C)Cn1cnc2c(N)ncnc21)OCOC(=O)OC(C)C :: 16600
C[C@H](Cn1cnc2c(N)ncnc21)OCP(=O)(OCOC(=O)OC(C)(C)C)OCOC(=O)OC(C)(C)C :: 50
